Please respond with reported Liver Microsome Stability-% Left after 30 min w/ NADPH (%) Human for every item in the list.
- test method notes: In Vitro Microsome Stability Assay (human)
- Assay type: in vitro ADME
- measurement setup: human liver microsomes, 30 min w/ NADPH
Give bare numbers, in %.

Example entries begin here.
{"compound": "CC(C)CN1CCCN(S(=O)(=O)c2ccc(N(C)C)cc2)C[C@H](C)CN(S(=O)(=O)N2CCc3cc(Cl)ccc3C2)CCC1 [A152]", "unit tag": "%", "reported": 3.69}
{"compound": "C[C@H]1CN(S(=O)(=O)c2ccc(N(C)C)cc2)CCCN(Cc2ncco2)CCCN(S(=O)(=O)N2CCc3cc(Cl)ccc3C2)C1 [A125]", "unit tag": "%", "reported": 0.2}
{"compound": "CC[C@H]1CN(S(=O)(=O)c2ccc(N(C)C)cc2)CCCN(CC2CCCCC2)CCCN(S(=O)(=O)N2CCc3cc(Cl)ccc3C2)C1 [A182]", "unit tag": "%", "reported": 53.7}
{"compound": "Cc1cc(F)ccc1N1CCN(S(=O)(=O)N2CCCN(CC3CCCCC3)CCCN(S(=O)(=O)c3ccc(N(C)C)cc3)C[C@H](C)C2)CC1 [A102]", "unit tag": "%", "reported": 62.3}
{"compound": "C[C@H]1CCN(S(=O)(=O)c2ccc(N(C)C)cc2)CCCN(CC2CCCCC2)CCCN1S(=O)(=O)N1CCc2cc(Cl)ccc2C1 [A147]", "unit tag": "%", "reported": 2.76}

# context switch: different compound, same Liver Microsome Stability-% Left after 30 min w/ NADPH (%) Human
-- ask Identify measured Liver Microsome Stability-% Left after 30 min w/ NADPH (%) Human corresponding to COc1c(F)cccc1N1CCN(S(=O)(=O)N2CCCN(CC3CCCCC3)CCCN(S(=O)(=O)c3ccc(N(C)C)cc3)C[C@H](C)C2)CC1 [A175]
-- reply 4.26

* * *

Could you please report measured Liver Microsome Stability-% Left after 30 min w/ NADPH (%) Mouse for the items listed next?
- test method notes: In Vitro Microsome Stability Assay (mouse)
- Type: in vitro ADME
- measurement setup: mouse liver microsomes, 30 min w/ NADPH
One number for each entry, in %.

Observe how each entry below is paired with its result.
{"molecule": "COc1ccc([C@@H]2CCCN(S(=O)(=O)N3CCCN(CC4CCCCC4)CCCN(S(=O)(=O)c4ccc(N(C)C)cc4)C[C@H](C)C3)C2)cc1 [A208]", "reported": 51.8}
{"molecule": "C[C@H]1CN(S(=O)(=O)c2cccc(N(C)C)c2)CCCN(CC2CCCCC2)CCCN(S(=O)(=O)N2CCc3cc(Cl)ccc3C2)C1 [A168]", "reported": 42}

Would you mind giving Liver Microsome Stability-% Left after 30 min w/ NADPH (%) Mouse for every molecule in the list below?
1. C=C1CN(S(=O)(=O)c2ccc(C)cc2)CCCN(CC2CCCCC2)CC(C)CN(S(=O)(=O)c2ccc(C)cc2)C1 (stereo not shown) [B2]
2. C[C@H]1CN(S(=O)(=O)c2ccc(N(C)C)cc2)CCCN([C@H](C)C2CCCCC2)CCCN(S(=O)(=O)N2CCc3cc(Cl)ccc3C2)C1 [A191]

-- reply
1: 0.55; 2: 55.3

* * *

Assign Liver Microsome Stability-% Left after 30 min w/ NADPH (%) Rat to each entry below.
- test method notes: In Vitro Microsome Stability Assay (rat)
- Assay type: in vitro ADME
- measurement setup: rat, 30 min, NADPH
Include the unit right after the number.

Worked examples follow.
{"smiles": "C=C1CN(S(=O)(=O)c2ccc(N(C)C)cc2)CCCN(CC2CCCCC2)CCCN(S(=O)(=O)N2CCC(c3ncccn3)CC2)C1", "reported": "0.12%"}
{"smiles": "C=C1CN(S(=O)(=O)c2ccc(C)cc2)CCCN(CC2CCCCC2)CCCN(S(=O)(=O)C(C)C)C1", "reported": "0.23%"}
{"smiles": "CN(C)c1ccc(S(=O)(=O)N2CCCN(CC3CCCCC3)CCCN(S(=O)(=O)N3CCCCC3)CC3(COC3)C2)cc1", "reported": "1.06%"}

Kindly consider the entry below.
-- ask Return Liver Microsome Stability-% Left after 30 min w/ NADPH (%) Rat (reported value) for this compound: `C=C1CN(S(=O)(=O)c2ccc(N(C)C)cc2)CCCN(CC2CCCCC2)CCCN(S(=O)(=O)N2Cc3ccc(Cl)cc3C2)C1`
-- reply 22.2%

* * *

- test method notes: In Vitro Microsome Stability Assay (human)
- Type: in vitro ADME
- measurement setup: human, 30 min, NADPH
Structures can show the parent of a compound that is named as a salt.
measured attribute: Liver Microsome Stability-% Left after 30 min w/ NADPH (%) Human
Give bare numbers, in %.

{"compound": "COc1ccc(S(=O)(=O)N2CCCN(CC3CCCCC3)CCCN(S(=O)(=O)N3CCCCC3)CC3(CC3)C2)cc1 [A31]", "unit tag": "%", "reported": 0.05}
{"compound": "Cc1ccc(S(=O)(=O)N2CCCN(CC3CCCCC3)CCCN(S(=O)(=O)c3ccc(N(C)C)cc3)CC3(CC3)C2)cc1 [A11, hydrochloride]", "unit tag": "%", "reported": 0.21}
{"compound": "C=C1CN(S(=O)(=O)c2ccc(N(C)C)cc2)CCCN(CC2CCCCC2)CCCN(S(=O)(=O)N2CC=C(C3=CCCC3)CC2)C1 [A67]", "unit tag": "%", "reported": 33.2}
{"compound": "Cc1cccc(N2CCN(S(=O)(=O)N3CCCN(CC4CCCCC4)CCCN(S(=O)(=O)c4ccc(N(C)C)cc4)C[C@H](C)C3)CC2)c1 [A98]", "unit tag": "%", "reported": 57.5}
{"compound": "C=C1CN(S(=O)(=O)c2ccc(N(C)C)cc2)CCCN(CC2CCCCC2)CCCN(S(=O)(=O)N2CCC(n3cccn3)CC2)C1 [A79]", "unit tag": "%", "reported": 0.16}
{"compound": "C=C1CN(S(=O)(=O)c2ccc(N(C)C)cc2)CCCN(CC2CCCCC2)CCCN(S(=O)(=O)N2CCc3ccccc3C2)C1 [A50]", "unit tag": "%", "reported": 1.32}
{"compound": "Cc1ccc(S(=O)(=O)N2CCCN(CC3CCCCC3)CCCN(S(=O)(=O)c3ccc(N(C)C)cc3)CCC2)cc1 [A14]", "unit tag": "%", "reported": 0.08}
{"compound": "C[C@H]1CN(S(=O)(=O)c2ccc(N(C)C)cc2)CCCN(CC2CCCCC2)CCCN(S(=O)(=O)N2CCN(c3ncccn3)CC2)C1 [A93]", "unit tag": "%", "reported": 0.84}
{"compound": "C=C1CN(S(=O)(=O)c2ccc(N(C)C)cc2)CCCN(CC2CCCCC2)CCCN(S(=O)(=O)N2CCC(OC(C)C)CC2)C1 [A66]", "unit tag": "%", "reported": 0.13}
{"compound": "Cc1ccccc1N1CCN(S(=O)(=O)N2CCCN(CC3CCCCC3)CCCN(S(=O)(=O)c3ccc(N(C)C)cc3)C[C@H](C)C2)CC1 [A97]", "unit tag": "%", "reported": 71.1}

For each of the compounds below, note its Liver Microsome Stability-% Left after 30 min w/ NADPH (%) Human.
1. C=C1CN(S(=O)(=O)c2ccc(N(C)C)cc2)CCCN(CC2CCCCC2)CCCN(S(=O)(=O)N2CCc3nc(Cl)ccc3C2)C1 [A82]
2. C=C1CN(S(=O)(=O)c2ccc(N(C)C)cc2)CCCN(CC2CCCCC2)CCCN(S(=O)(=O)N2CCN(c3ccccc3)CC2)C1 [A36]
3. C=C1CN(S(=O)(=O)c2ccc(N(C)C)cc2)CCCN(CC2CCCCC2)CCCN(S(=O)(=O)N2CCC[C@H](c3ccccc3)C2)C1 [A49]
4. CC1CCCN(S(=O)(=O)N2CCCN(CC3CCCCC3)CCCN(S(=O)(=O)c3ccc(N(C)C)cc3)CC3(CC3)C2)C1 (stereo not drawn) [A21]
5. CN(C)c1ccc(S(=O)(=O)N2CCCN(CC3CCCCC3)CCCN(S(=O)(=O)N3CCCC3)CC3(CC3)C2)cc1 [A23]

-- reply
1. 0.3
2. 6.69
3. 3.5
4. 0.14
5. 0.04

# batch size: 8; output Liver Microsome Stability-% Left after 30 min w/ NADPH (%) Human per entry
1. C=C1CN(S(=O)(=O)c2ccc(C)cc2)CCCN(CC2CCCCC2)CCCN(S(=O)(=O)c2ccc(C)cc2)C1 [A2]
2. C[C@H]1CN(S(=O)(=O)c2ccc(N(C)C)cc2)CCCN(CC2CCCCC2)CCCN(S(=O)(=O)N2CCC(Oc3ccccc3)CC2)C1 [A92]
3. C=C1CN(S(=O)(=O)c2ccc(C)cc2)CCCN(CC2CCCCC2)CCCN(S(=O)(=O)C2CCCCC2)C1 [A8]
4. C=C1CN(S(=O)(=O)c2ccc(N(C)C)cc2)CCCN(CC2CCCCC2)CCCN(S(=O)(=O)N2CCC(c3cccc(Cl)c3)CC2)C1 [A58]
5. C[C@H]1CN(S(=O)(=O)c2ccc(N(C)C)cc2)CCCN(CC2CCCCC2)CCCN(S(=O)(=O)N2CCN(c3ccccc3F)CC2)C1 [A94]
6. C=C1CN(S(=O)(=O)c2ccc(N(C)C)cc2)CCCN(CC2CCCCC2)CCCN(S(=O)(=O)N2CCc3c(Cl)cccc3C2)C1 [A54]
7. C[C@H]1CN(S(=O)(=O)c2ccc(N(C)C)cc2)CCCN(CC2CCCCC2)CCCN(S(=O)(=O)N2CC[C@@H](c3ccccc3)C2)C1 [A90]
8. C=C1CN(S(=O)(=O)c2ccc(N(C)C)cc2)CCCN(CC2CCCCC2)CCCN(S(=O)(=O)N2CCN(c3ccccc3)C(=O)C2)C1 [A48]

-- reply
1. 0.04
2. 44.3
3. 0.09
4. 31.6
5. 42.1
6. 33.8
7. 20.1
8. 0.19

Batch of 2 compounds: report Liver Microsome Stability-% Left after 30 min w/ NADPH (%) Human for each.
1. C=C1CN(S(=O)(=O)c2ccc(N(C)C)cc2)CCCN(CC2CCCCC2)CCCN(S(=O)(=O)N2CCc3cccc(Cl)c3C2)C1 [A51]
2. CN(C)c1ccc(S(=O)(=O)N2CCCN(CC3CCCCC3)CCCN(S(=O)(=O)N3CCC(c4ccccc4)CC3)C/C(=N/O)C2)cc1 [A75]

-- reply
[26.7, 3.08]

// each listed compound needs a value for Liver Microsome Stability-% Left after 30 min w/ NADPH (%) Human
1. C=C1CN(S(=O)(=O)c2ccc(N(C)C)cc2)CCCN(CC2CCCCC2)CCCN(S(=O)(=O)N2CCc3cc(F)ccc3C2)C1 [A59]
2. C[C@H]1CN(S(=O)(=O)c2ccc(N(C)C)cc2)CCCN(CC2CCCCC2)CCCN(S(=O)(=O)N2CCC(c3ccccc3)CC2)C1 [A77]

-- reply
1. 1.89
2. 30.1

Numbers sourced from patent US11578055B2.
